# Test system: HepG2 cells
# study_conditions: human, 48 h
Binning rule for recorded Tox50, cytotoxicity in HepG2 cells: low = under 10 µM, medium = from 10 µM up to 20 µM, high = 20 µM and over

Field: example entries. Status: answers known.
CCCc1ccc(-n2c(-c3ccc(Cl)cc3)cc(CN3CCOCC3)c2C)cc1; medium
CCc1ccc(-n2c(-c3ccc(Cl)cc3)cc(CN3CCOCC3)c2C)cc1; medium

Bin this entry: `COc1ccc(-n2c(-c3ccc(C(C)C)cc3)cc(CN3CCOCC3)c2C)cc1`
medium

Bin this entry: `CCc1ccc(-c2cc(CN3CCOCC3)c(C)n2-c2ccc(OC)cc2)cc1`
low

Bin this entry: `Cc1c(CN2CCOCC2)cc(-c2ccc(C(C)C)cc2)n1-c1ccc(F)cc1`
medium

Bin this entry: `CCCc1ccc(-c2cc(CN3CCOCC3)c(C)n2-c2ccc(OC)cc2)cc1`
medium

Bin this entry: `CCCc1ccc(-c2cc(CN3CCOCC3)c(C)n2-c2ccc(Cl)cc2)cc1`
medium

Bin this entry: `CSc1ccc(-c2cc(CN3CCOCC3)c(C)n2-c2ccc(F)cc2)cc1`
high

Bin this entry: `Cc1c(CN2CCN(C)CC2)cc(-c2ccc(Cl)cc2)n1-c1ccc(Cl)cc1`
low

Bin this entry: `COc1ccc(-c2cc(CN3CCOCC3)c(C)n2-c2ccc(C)cc2)cc1`
medium

Bin this entry: `CCc1ccc(-c2cc(CN3CCOCC3)c(C)n2-c2ccc(Cl)cc2)cc1`
low

Bin this entry: `Cc1c(CN2CCOCC2)cc(-c2ccc(Cl)cc2)n1-c1ccc(C(C)C)cc1`
medium

Bin this entry: `Cc1ccc(-n2c(-c3ccc(Cl)cc3)cc(CN3CCOCC3)c2C)cc1`
high

* * *

Entries annotated with measured melting point
Answer with a number only, understood to be in °C.

Cc1c(CN2CCOCC2)cc(-c2ccc(C(C)C)cc2)n1-c1ccc(F)cc1; 120
CCc1ccc(-n2c(-c3ccc(Cl)cc3)cc(CN3CCOCC3)c2C)cc1; 102
CSc1ccc(-c2cc(CN3CCOCC3)c(C)n2-c2ccc(F)cc2)cc1; 134
COc1ccc(-c2cc(CN3CCOCC3)c(C)n2-c2ccc(F)cc2)cc1; 169
Cc1ccc(-n2c(-c3ccc(Cl)cc3)cc(CN3CCOCC3)c2C)cc1; 111
COc1ccc(-n2c(-c3ccc(C)cc3)cc(CN3CCOCC3)c2C)cc1; 128
Cc1c(CN2CCOCC2)cc(-c2ccc(C(C)C)cc2)n1-c1ccc(Cl)cc1; 135
Cc1ccc(-c2cc(CN3CCOCC3)c(C)n2-c2ccc(Cl)cc2)cc1; 130

Briefly, melting point measured for `CCCc1ccc(-c2cc(CN3CCOCC3)c(C)n2-c2ccc(OC)cc2)cc1` : 107

Briefly, melting point measured for `COc1ccc(-n2c(-c3ccc(C(C)C)cc3)cc(CN3CCOCC3)c2C)cc1` : 109

Briefly, melting point measured for `CCc1ccc(-c2cc(CN3CCOCC3)c(C)n2-c2ccc(OC)cc2)cc1` : 101

Briefly, melting point measured for `CCc1ccc(-c2cc(CN3CCOCC3)c(C)n2-c2ccc(F)cc2)cc1` : 107

* * *

# method: in vitro
# study_conditions: African green monkey
measurement_label: CC50 at 72 h

As a guide, the following entries are already answered.
Cc1ccc(-c2cc(CN3CCOCC3)c(C)n2-c2ccc(F)cc2)cc1; > 351 µM
CCCc1ccc(-c2cc(CN3CCOCC3)c(C)n2-c2ccc(Cl)cc2)cc1; > 256 µM
CCCc1ccc(-c2cc(CN3CCOCC3)c(C)n2-c2ccc(OC)cc2)cc1; > 256 µM

Now take the following compound into account.
Briefly, CC50 at 72 h measured for `CCc1ccc(-c2cc(CN3CCOCC3)c(C)n2-c2ccc(Cl)cc2)cc1` : > 256 µM
